# assayed system: Estrogen receptor (Mus musculus) (UniProt O08537+P19785)
# Sequence (O08537 whole entry, looked up): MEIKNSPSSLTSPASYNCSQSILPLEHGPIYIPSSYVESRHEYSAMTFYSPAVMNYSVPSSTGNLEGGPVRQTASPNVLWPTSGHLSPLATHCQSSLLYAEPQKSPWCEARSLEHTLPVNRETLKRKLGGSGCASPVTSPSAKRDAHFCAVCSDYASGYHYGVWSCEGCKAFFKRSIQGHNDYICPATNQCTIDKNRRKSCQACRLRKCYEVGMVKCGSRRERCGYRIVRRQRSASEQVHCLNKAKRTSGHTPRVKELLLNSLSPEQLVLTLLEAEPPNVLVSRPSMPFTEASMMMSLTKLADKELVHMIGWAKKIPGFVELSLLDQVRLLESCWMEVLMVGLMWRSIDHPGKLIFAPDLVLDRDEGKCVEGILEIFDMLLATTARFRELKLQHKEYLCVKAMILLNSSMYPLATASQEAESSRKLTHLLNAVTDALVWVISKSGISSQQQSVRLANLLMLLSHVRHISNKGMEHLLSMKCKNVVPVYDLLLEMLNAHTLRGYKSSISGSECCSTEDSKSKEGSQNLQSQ
# Sequence (P19785 whole entry, looked up): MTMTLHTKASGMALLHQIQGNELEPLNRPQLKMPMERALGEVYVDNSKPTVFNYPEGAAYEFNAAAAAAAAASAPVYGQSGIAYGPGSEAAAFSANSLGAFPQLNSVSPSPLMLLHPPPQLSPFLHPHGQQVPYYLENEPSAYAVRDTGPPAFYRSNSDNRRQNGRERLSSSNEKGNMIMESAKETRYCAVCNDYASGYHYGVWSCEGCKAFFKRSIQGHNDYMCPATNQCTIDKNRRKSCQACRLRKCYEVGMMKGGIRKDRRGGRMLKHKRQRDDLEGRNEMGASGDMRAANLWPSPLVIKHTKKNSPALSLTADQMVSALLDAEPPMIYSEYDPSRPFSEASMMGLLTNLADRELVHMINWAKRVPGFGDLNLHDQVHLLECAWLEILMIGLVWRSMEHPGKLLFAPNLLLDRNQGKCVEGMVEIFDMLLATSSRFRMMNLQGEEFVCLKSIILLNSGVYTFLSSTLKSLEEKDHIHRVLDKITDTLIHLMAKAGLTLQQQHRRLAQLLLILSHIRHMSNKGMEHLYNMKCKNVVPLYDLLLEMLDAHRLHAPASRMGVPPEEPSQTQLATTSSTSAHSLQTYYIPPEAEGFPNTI
# test protocol: Estrogenic activity in uterotrophic assay in immature mice at 10.0 ug subcutaneous dose
# Type: functional
outcome measure: Effect
// keep it numeric: no unit symbol after the value

[[record]]
molecule = "CCC1Cn2c(cc3cc(OC(C)=O)ccc32)-c2ccc(OC(C)=O)cc21 (centres undefined)"
assay_result = 21.5


State the recorded Effect for this entry: CCC1Cc2cc(OC(C)=O)ccc2-c2cc3ccc(OC(C)=O)cc3n21 (centres undefined)
15.7

State the recorded Effect for this entry: CC(=O)Oc1ccc2c(c1)CC(C)n1c-2cc2cc(OC(C)=O)ccc21 (centres undefined)
26.3

State the recorded Effect for this entry: CCC1Cc2cc(OC(C)=O)ccc2-c2cc3cc(OC(C)=O)ccc3n21 (centres undefined)
25.5

* * *

# assayed system: Estrogen receptor (Mus musculus) (UniProt O08537+P19785)
# test protocol: Estrogenic activity in uterotrophic assay in immature mice at 2 ug subcutaneous dose
# Format: functional
outcome measure: Effect
// keep it numeric: no unit symbol after the value

Here are 4 compounds together with their reported answers.
[[record]]
compound = "CCC1Cc2cc(OC(C)=O)ccc2-c2cc3ccc(OC(C)=O)cc3n21 (stereo not given)"
assayed_system = "Estrogen receptor (Mus musculus) (UniProt O08537+P19785)"
assay_result = 49.6

[[record]]
compound = "CCC1Cc2cc(OC(C)=O)ccc2-c2cc3cc(OC(C)=O)ccc3n21 (stereo not given)"
assayed_system = "Estrogen receptor (Mus musculus) (UniProt O08537+P19785)"
assay_result = 52.3

[[record]]
compound = "CCC1Cc2cc(OC(C)=O)ccc2-c2c(C=O)c3cc(OC(C)=O)ccc3n21 (stereo not given)"
assayed_system = "Estrogen receptor (Mus musculus) (UniProt O08537+P19785)"
assay_result = 48.2

[[record]]
compound = "CCC1Cn2c(cc3cc(OC(C)=O)ccc32)-c2ccc(OC(C)=O)cc21 (stereo not given)"
assayed_system = "Estrogen receptor (Mus musculus) (UniProt O08537+P19785)"
assay_result = 50.9


Then there is this compound:
State the recorded Effect for this entry: CC(=O)Oc1ccc2c(c1)CC(C)n1c-2cc2cc(OC(C)=O)ccc21 (stereo not given)
52.6

* * *

# Test system: MCF7
# test protocol: Effect on hormone-dependent MCF-7 human breast cancer cell proliferation at 1x10E-5 M
# Assay type: functional
outcome measure: T/C (%)
Numbers only here, please. The scale is %.

Here are 2 molecules together with their reported answers.
[[record]]
molecule = "CCC1Cc2cc(OC(C)=O)c(OC(C)=O)cc2-c2cc3cc(OC(C)=O)ccc3n21 (stereo not drawn)"
outcome_measure = "T/C"
display_unit = "%"
assay_result = 22

[[record]]
molecule = "CCc1cc2cc(OC(C)=O)ccc2c2cc3ccc(OC(C)=O)cc3n12"
outcome_measure = "T/C"
display_unit = "%"
assay_result = 5


Then there is this molecule:
Identify the measured T/C of CC(=O)Oc1ccc2c(c1)CC(C)n1c-2cc2cc(OC(C)=O)ccc21 (stereo not drawn) for MCF7.
7

* * *

# Species: Bos taurus
# test protocol: Relative binding affinity(RBA) as ratio of progesterone and compound required to displace [3H]-org 2058 binding to Progesterone receptor by 50%
Recorded RBA, one value per entry.
// keep it numeric: no unit symbol after the value

Here are 2 compounds together with their reported answers.
[[record]]
compound = "CC(=O)Oc1ccc2c(c1)CC(C)n1c-2cc2cc(OC(C)=O)ccc21 (stereo not given)"
outcome_measure = "RBA"
assay_result = 0.01

[[record]]
compound = "CC(=O)Oc1ccc2c(c1)CCn1c-2cc2ccc(OC(C)=O)cc21"
outcome_measure = "RBA"
assay_result = 0.01


Then there is this compound:
State the recorded RBA for this entry: CCC1Cc2cc(OC(C)=O)ccc2-c2cc3ccc(OC(C)=O)cc3n21 (stereo not given)
0.05
